Each recorded value in this set is attributed to paper PMC3947174.

- system tested: N1P2 (NHERF1 PDZ2) (Homo sapiens, UniProt O14745)
- Sequence (O14745 154-234 limits assumed): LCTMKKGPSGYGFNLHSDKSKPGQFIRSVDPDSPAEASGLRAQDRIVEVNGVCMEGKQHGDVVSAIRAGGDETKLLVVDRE
- procedure details: FP displacement binding to NHERF1 PDZ2
Ends that are not written are not given here.
attribute measured: Ki (µM)
Express the result in µM but write the number alone.

Measured Ki of ANSRWQDTRL [iCAL36QDTRL] : 6.7

Measured Ki of ANSRVQDTRL [iCAL36VQDTRL] : 6.5

====

Please respond with reported pKi for every item in the list.
- system tested: N1P1 (NHERF1 PDZ1) (Homo sapiens, UniProt O14745)
- procedure details: FP displacement binding to NHERF1 PDZ1
Ends that are not written are not given here.
Would you please state pKi, meaning minus log10 of the concentration in mol/L, as a bare number?

Measured pKi of ANSRWQDTRL [iCAL36QDTRL] : 5.82

Measured pKi of ANSRVQDTRL [iCAL36VQDTRL] : 5.60

Measured pKi of ANSRWPTTRL [iCAL36TRL] : 5.10
